Target: T1, RsAgo Y463A/K467A (Rhodobacter sphaeroides (ATCC 17025D-5), UniProt A4WYU7 1-777, Y463A;K467A)
T1 sequence: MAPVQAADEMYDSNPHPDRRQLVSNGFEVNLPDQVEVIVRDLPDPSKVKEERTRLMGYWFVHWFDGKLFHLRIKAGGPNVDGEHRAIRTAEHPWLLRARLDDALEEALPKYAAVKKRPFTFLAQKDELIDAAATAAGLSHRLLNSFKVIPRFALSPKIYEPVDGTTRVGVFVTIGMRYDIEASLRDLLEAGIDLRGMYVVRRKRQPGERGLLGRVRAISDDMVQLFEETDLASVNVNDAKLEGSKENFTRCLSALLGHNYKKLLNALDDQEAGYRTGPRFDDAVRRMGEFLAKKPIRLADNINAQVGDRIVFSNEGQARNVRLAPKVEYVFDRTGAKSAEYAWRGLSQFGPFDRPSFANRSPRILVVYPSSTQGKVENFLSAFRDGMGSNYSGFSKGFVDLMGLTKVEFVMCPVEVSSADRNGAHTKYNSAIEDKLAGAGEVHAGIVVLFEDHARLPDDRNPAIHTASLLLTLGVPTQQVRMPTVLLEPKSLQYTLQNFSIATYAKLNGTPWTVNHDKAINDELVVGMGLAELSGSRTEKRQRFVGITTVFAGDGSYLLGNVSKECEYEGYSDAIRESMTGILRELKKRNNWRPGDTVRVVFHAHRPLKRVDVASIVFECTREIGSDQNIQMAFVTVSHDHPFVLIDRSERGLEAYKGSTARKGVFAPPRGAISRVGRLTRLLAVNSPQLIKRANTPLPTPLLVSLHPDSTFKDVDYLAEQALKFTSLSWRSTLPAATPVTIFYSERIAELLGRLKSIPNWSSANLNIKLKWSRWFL
Assay: fluorescence polarization; 5 mM Mg2+; FP: 20 mM HEPES-KOH pH 7.5, 200 mM NaCl, 5 mM MgCl2, 0.01 mg/ml E. coli total tRNA, 0.01% NP-40, 10 pM probe, 25 C; EMSA: 20 mM HEPES-KOH pH 7.5, 200 mM NaCl, 5
property_label: Kd (nM)
Response body: numeric value in nM, unit text excluded.

Q: Fill in the blank: the reported Kd of UUACAACCUACUACCUCG (ssRNA, 5'-phosphate) [5'P-RNA (5'U-RNA), FAM] is ____.
Result: 1700
